Ref: PubChem BioAssay AID588519

target: Genome polyprotein (Poliovirus type 1 (strain Mahoney)); assay: poliovirus RdRp elongation inhibitors, primary screen, biochemical, fluorescence polarization, total intensity (AID 588519); details: poliovirus polymerase elongation, stronger effect = lower value, compound at 16.7 µg/mL
The whole screen tested about 150,000 compounds, of which about 1,000 (0.67%) were called active. Many of the other results were omitted from the sample, so actives are more common in it than they were.
outcome-measure: % elongation (%)
Enter your answer as a number in %; do not include the unit.

// worked examples, % elongation included
INSERT INTO results (compound, experimental_target, observed_value) VALUES
  ('COc1cc(NC(=O)CN2CCN(S(=O)(=O)c3ccc(Br)cc3)CC2)cc(OC)c1', 'Genome polyprotein (Poliovirus type 1 (strain Mahoney))', 114),
  ('Clc1nc2ccccc2c(N2CCCCC2)c1CNC1CC1', 'Genome polyprotein (Poliovirus type 1 (strain Mahoney))', 104),
  ('N#CC(=C1C(=O)c2ccccc2C1=O)c1nc2ccccc2[nH]1', 'Genome polyprotein (Poliovirus type 1 (strain Mahoney))', 80);

Recorded % elongation (compound CCCCN(C)C(=O)C1CCN(c2nn3cc(-c4ccc(OC)cc4)nc3s2)CC1 ): 104

Recorded % elongation (compound CCOc1ccc2nc(NC(=O)c3ccccc3OC)sc2c1 ): 99

Recorded % elongation (compound O=C(O)COc1cc(Br)c(Br)c(Br)c1O ): 102

Recorded % elongation (compound NS(=O)(=O)c1ccc(N=Cc2c(O)n(Cc3ccc4c(c3)OCO4)c(=O)c3ccccc23)cc1 ): 100

Recorded % elongation (compound C=CCn1ccc2c(OCC(=O)c3ccccc3)cccc2c1=O ): 104

Recorded % elongation (compound COC(=O)c1c(NC(=O)CCCOc2ccccc2)sc2c1CCC(C)C2 (stereo not drawn) ): 105

###

target: Genome polyprotein (Poliovirus type 1 (strain Mahoney)); assay: poliovirus RdRp elongation inhibitors, primary screen, biochemical, fluorescence polarization, total intensity (AID 588519); conditions: poliovirus polymerase elongation, measured here: total intensity read-out, stronger effect = lower value, compound at 16.7 µg/mL
Among all 150,000 compounds or so, about 1,000 (0.67%) were called active. The full list was thinned out, with actives kept by preference.
A collection of compounds and their measured % elongation
Enter your answer as a number in %; do not include the unit.

// worked examples, % elongation included
INSERT INTO assay_data (compound, experimental_target, observed_value) VALUES
  ('CCOC(=O)C(C(=O)c1ccccc1)C1(O)C(=O)c2ccccc2C1=O (stereo not drawn)', 'Genome polyprotein (Poliovirus type 1 (strain Mahoney))', 56),
  ('Nc1[nH]c(=S)sc1C(=O)Nc1nccs1', 'Genome polyprotein (Poliovirus type 1 (strain Mahoney))', 75),
  ('CCN1CCN(C(=O)C2CCCCC2C(=O)O)CC1 (stereo not drawn)', 'Genome polyprotein (Poliovirus type 1 (strain Mahoney))', 103),
  ('Cc1nnc2ccc(-c3ccc(NS(=O)(=O)c4ccc5c(c4)OCCO5)cc3)nn12', 'Genome polyprotein (Poliovirus type 1 (strain Mahoney))', 102),
  ('O=S(=O)(c1cc(S(=O)(=O)C(F)(F)F)c(Cl)c(S(=O)(=O)C(F)(F)F)c1)C(F)(F)F', 'Genome polyprotein (Poliovirus type 1 (strain Mahoney))', 95);

Recorded % elongation (compound O=C(CSc1nnc2ccccn12)c1ccccc1 ): 103

Recorded % elongation (compound CCOC(=O)C1=C(C)NC(=O)NC1c1ccccc1 (stereo not drawn) ): 102

Recorded % elongation (compound CCCCCC(=O)Nc1cc(-c2nc3cc(C)cc(C)c3o2)ccc1C ): 102

###

A collection of compounds and their measured % elongation
target: Genome polyprotein (Poliovirus type 1 (strain Mahoney)); assay: poliovirus RdRp elongation inhibitors, primary screen, biochemical, fluorescence polarization, total intensity (AID 588519); conditions: poliovirus polymerase elongation, stronger effect = lower value, compound at 16.7 µg/mL
Among all 150,000 compounds or so, about 1,000 (0.67%) were called active. This is one part of a sample in which actives are shown more often than they occur.
Enter your answer as a number in %; do not include the unit.

INSERT INTO assay_data (compound, outcome_measure, observed_value) VALUES
  ('Nc1nnc(-c2ccc(Cn3c(-c4cncs4)nc4ccccc43)cc2)s1', '% elongation', 63),
  ('Cc1cc(SCc2ccccc2)nc2ccccc12', '% elongation', 103),
  ('C#CCN1CCS(=O)(=O)CC1', '% elongation', 100),
  ('CCOC(=O)C1=C(C)NC(=O)NC1c1ccccc1 (stereo unspecified)', '% elongation', 101),
  ('CCOC(=O)c1sc(NC(=O)/C=C/c2ccc(Cl)cc2)cc1C', '% elongation', 102);

Kindly consider the entry below.
Recorded % elongation (compound CCCC(=O)Nc1ccc(C(=O)CSc2nnc(Cc3ccccc3)o2)cc1 ): 106

###

A collection of molecules and their measured % elongation
biological target: Genome polyprotein (Poliovirus type 1 (strain Mahoney)); experiment: poliovirus RdRp elongation inhibitors, primary screen, biochemical, fluorescence polarization, total intensity (AID 588519); conditions: poliovirus polymerase elongation, measured here: total intensity read-out, stronger effect = lower value, compound at 16.7 µg/mL
The whole screen tested about 150,000 compounds, of which about 1,000 (0.67%) were called active. Only a selection was taken, and actives are over-represented in it overall.
Enter your answer as a number in %; do not include the unit.

// worked examples, % elongation included
INSERT INTO results (molecule, observed_value) VALUES
  ('CC(C)(C)NCC(O)COc1c(Br)ccc2c1sc1nc3n(c(=O)c12)CCCCC3 (stereo not drawn)', 96),
  ('COc1ccc(-c2csc(=Nc3ccccc3)n2C)cc1', 102),
  ('COc1ccc2c(c1)Cc1sc(NC(=O)c3ccccc3Br)nc1-2', 63),
  ('CC(NC(=O)C1CCCN1C(=O)c1cccs1)c1ccc(-n2ccnc2)cc1 (stereo not drawn)', 104),
  ('O=C(O)/C(=C/C(=O)c1ccccc1)Nc1ccc(OC(F)(F)F)cc1', 111),
  ('O=C(CSc1nnc(-c2c[nH]c3ccccc23)o1)NCC1CN(Cc2ccccc2)CCO1 (stereo not drawn)', 109);

Recorded % elongation (molecule O=C(CNc1ccccc1N1CCCCC1)N1CCc2ccccc21 ): 94

Recorded % elongation (molecule Cc1ccc(NC(=S)Nc2ccc(C)cc2)cc1 ): 82

Recorded % elongation (molecule Cc1cc(/C=C/C(=O)N2CCCC2c2cccs2)c(C)n1Cc1ccco1 (stereo not drawn) ): 98

###

molecular target: Genome polyprotein (Poliovirus type 1 (strain Mahoney)); test: poliovirus RdRp elongation inhibitors, primary screen, biochemical, fluorescence polarization, total intensity (AID 588519); settings: poliovirus polymerase elongation, measured here: FP z-score, stronger effect = lower value
Among all 150,000 compounds or so, about 1,000 (0.67%) were called active. The list comes from a sample in which actives are over-represented; it also holds close analogues and randomly drawn compounds.
Binarize z-score at 0.1; below is Y, at or above is N.

INSERT INTO assay_data (molecule, category_label) VALUES
  ('O=c1c(Cl)c(NC2CC2)cnn1-c1ccccc1', 'N'),
  ('O=C(O)CSc1ccc(S(=O)(=O)N2CCCC2)cn1', 'N'),
  ('CCn1c(=O)c(=O)n(CC)c2cc(N3CCCCC3)c(NC(=O)c3ccccc3)cc21', 'N'),
  ('CCn1c(=O)c(=O)n(CC)c2cc(N3CCCCC3)c(NC(=O)c3cccc(F)c3)cc21', 'Y'),
  ('O=C(Nc1ccccc1I)C1CCCO1 (centres undefined)', 'N');

Problem: Hello, I'm reviewing records and need to know if z-score of COC(=O)CC(N)c1ccc(Cl)cc1 (centres undefined) is below 0.1. Could you check?
Result: N

Problem: Hello, I'm reviewing records and need to know if z-score of CN(C)/C=N/N=C(\Cc1nc2ccccc2[nH]1)c1ccccc1 is below 0.1. Could you check?
Result: N

Problem: Hello, I'm reviewing records and need to know if z-score of S=C(c1ccc(-c2ccccc2)o1)N1CCCCC1 is below 0.1. Could you check?
Result: Y

Problem: Hello, I'm reviewing records and need to know if z-score of C=CCSc1nnc(NC(=O)CCNS(=O)(=O)c2ccccc2)s1 is below 0.1. Could you check?
Result: N

Problem: Hello, I'm reviewing records and need to know if z-score of S=C(c1ccc(-c2ccc(Cl)cc2)o1)N1CCN(c2ccccc2)CC1 is below 0.1. Could you check?
Result: Y

Problem: Hello, I'm reviewing records and need to know if z-score of CC(C)c1n[nH]c(=S)n1N is below 0.1. Could you check?
Result: Y

Problem: Hello, I'm reviewing records and need to know if z-score of COC(=O)c1sc(C)cc1OC(=O)c1ccc(OC)cc1 is below 0.1. Could you check?
Result: Y

###

A collection of compounds and their measured % elongation
biological target: Genome polyprotein (Poliovirus type 1 (strain Mahoney)) (UniProt P03300); assay: poliovirus RdRp elongation inhibitors, primary screen, biochemical, fluorescence polarization, total intensity (AID 588519); settings: poliovirus polymerase elongation, stronger effect = lower value, compound at 16.7 µg/mL
Sequence (P03300 1749-2209 limits assumed): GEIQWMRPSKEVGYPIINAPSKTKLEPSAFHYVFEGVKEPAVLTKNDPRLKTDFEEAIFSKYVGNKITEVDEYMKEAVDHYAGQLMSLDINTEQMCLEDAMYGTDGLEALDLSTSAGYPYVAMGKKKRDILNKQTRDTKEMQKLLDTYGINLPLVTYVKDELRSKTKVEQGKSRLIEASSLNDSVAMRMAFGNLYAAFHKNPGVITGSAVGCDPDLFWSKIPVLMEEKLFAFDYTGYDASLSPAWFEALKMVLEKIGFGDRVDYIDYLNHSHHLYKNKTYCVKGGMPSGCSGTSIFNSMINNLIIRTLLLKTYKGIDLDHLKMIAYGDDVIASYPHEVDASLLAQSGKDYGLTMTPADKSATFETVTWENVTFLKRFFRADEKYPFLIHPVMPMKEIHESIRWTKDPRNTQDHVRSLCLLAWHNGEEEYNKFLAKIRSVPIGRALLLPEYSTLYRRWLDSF
Hit rate of the full screen: of about 150,000 compounds, about 1,000 (0.67%) were called active. Many of the other results were omitted from the sample, so actives are more common in it than they were.

// worked examples, % elongation included
INSERT INTO results (compound, observed_value) VALUES
  ('Clc1nc(Nc2ccccc2)sc1/C=N/N1CCOCC1', '149% (inactive)'),
  ('CC(C)c1n[nH]c(=S)n1N', '62% (active)'),
  ('COC(=O)C1CCN(S(=O)(=O)c2ccc(Cl)cc2)CC1', '103% (inactive)'),
  ('Nn1c(SCC(=O)Nc2ccc(S(=O)(=O)N3CCCC3)cc2)nnc1-c1ccccc1', '76% (active)'),
  ('CCCC(Nc1cc(Cl)cc(Cl)c1)n1nnc2ccccc21 (centres undefined)', '104% (inactive)');

Recorded % elongation (compound Cc1ccccc1CN1CCCN(Cc2ccccc2)S1(=O)=O ): 103% (inactive)

Recorded % elongation (compound CN1/C(=C/C(=S)C(C)(C)C)Sc2ccccc21 ): 84% (active)

Recorded % elongation (compound Cc1cc(NC(=O)c2ccccc2C)no1 ): 103% (inactive)

Recorded % elongation (compound CC(NC(=O)Nc1cccnc1)N1C(=O)C2C3C=CC(C3)C2C1=O (centres undefined) ): 100% (inactive)
